Where do these numbers come from? They come from ChEMBL document CHEMBL1126699.

# measured on: Adrenergic receptor alpha-1 (Rattus norvegicus, UniProt P15823+P23944+P43140)
# method summary: Ex vivo alpha-1-adrenoceptor blocking activity by antagonism of (-)-norepinephrine -induced contractions of the epididymal portion of isolated rat vas deferens.
# Format: functional
endpoint name: pA2

[
  {
    "compound": "COc1cccc(OC)c1OCCNCC1COc2ccccc2O1 (stereo not given)",
    "number": 9.26
  },
  {
    "compound": "COc1ccc([C@H]2Oc3ccccc3O[C@@H]2CNCCOc2c(OC)cccc2OC)cc1",
    "number": 8.67
  },
  {
    "compound": "COc1cccc(OC)c1OCCNC[C@H]1Oc2ccccc2O[C@@H]1c1ccc(O)cc1",
    "number": 7.84
  },
  {
    "compound": "COc1cccc(OC)c1OCCNC[C@H]1Oc2ccccc2O[C@@H]1c1ccc(Cl)cc1",
    "number": 8.15
  },
  {
    "compound": "COc1cccc(OC)c1OCCNC[C@H]1Oc2ccccc2O[C@@H]1C",
    "number": 7.94
  },
  {
    "compound": "COc1cccc(OC)c1OCCNC[C@H]1Oc2ccccc2O[C@H]1c1ccc(Cl)cc1",
    "number": 7.09
  },
  {
    "compound": "COc1cccc(OC)c1OCCNC[C@H]1Oc2ccccc2O[C@H]1C(C)C",
    "number": 5.94
  },
  {
    "compound": "COc1cccc(OC)c1OCCNC[C@H]1Oc2ccccc2O[C@H]1C1CCCCC1",
    "number": 6.2
  },
  {
    "compound": "COc1cccc(OC)c1OCCNC[C@H]1Oc2ccccc2O[C@@H]1C1CCCCC1",
    "number": 6.09
  },
  {
    "compound": "COc1cccc(OC)c1OCCNC[C@H]1Oc2ccccc2O[C@H]1c1ccc(C)cc1",
    "number": 7.1
  }
]

###

Here, each record is paired with measured Ratio data.
# measured on: Adrenergic receptor alpha (Rattus norvegicus) (UniProt P15823+P23944+P43140+P22086+P19328+P22909)
# method summary: Selectivity ratio is the antilog of the difference between pA2 values at alpha1- and alpha2- adrenoceptors

[
  {
    "smiles string": "COc1cccc(OC)c1OCCNC[C@H]1Oc2ccccc2O[C@@H]1C1CCCCC1",
    "Ratio": "> 40"
  },
  {
    "smiles string": "CCc1ccc([C@H]2Oc3ccccc3O[C@@H]2CNCCOc2c(OC)cccc2OC)cc1",
    "Ratio": "> 2000"
  }
]

Here is the next item to consider.
Just so you know, measured Ratio for COc1ccc([C@H]2Oc3ccccc3O[C@@H]2CNCCOc2c(OC)cccc2OC)cc1 came out at > 14000
